tested_target: NAD-dependent protein deacetylase sirtuin-1 (Homo sapiens, UniProt Q96EB6)
Sequence (Q96EB6 whole entry): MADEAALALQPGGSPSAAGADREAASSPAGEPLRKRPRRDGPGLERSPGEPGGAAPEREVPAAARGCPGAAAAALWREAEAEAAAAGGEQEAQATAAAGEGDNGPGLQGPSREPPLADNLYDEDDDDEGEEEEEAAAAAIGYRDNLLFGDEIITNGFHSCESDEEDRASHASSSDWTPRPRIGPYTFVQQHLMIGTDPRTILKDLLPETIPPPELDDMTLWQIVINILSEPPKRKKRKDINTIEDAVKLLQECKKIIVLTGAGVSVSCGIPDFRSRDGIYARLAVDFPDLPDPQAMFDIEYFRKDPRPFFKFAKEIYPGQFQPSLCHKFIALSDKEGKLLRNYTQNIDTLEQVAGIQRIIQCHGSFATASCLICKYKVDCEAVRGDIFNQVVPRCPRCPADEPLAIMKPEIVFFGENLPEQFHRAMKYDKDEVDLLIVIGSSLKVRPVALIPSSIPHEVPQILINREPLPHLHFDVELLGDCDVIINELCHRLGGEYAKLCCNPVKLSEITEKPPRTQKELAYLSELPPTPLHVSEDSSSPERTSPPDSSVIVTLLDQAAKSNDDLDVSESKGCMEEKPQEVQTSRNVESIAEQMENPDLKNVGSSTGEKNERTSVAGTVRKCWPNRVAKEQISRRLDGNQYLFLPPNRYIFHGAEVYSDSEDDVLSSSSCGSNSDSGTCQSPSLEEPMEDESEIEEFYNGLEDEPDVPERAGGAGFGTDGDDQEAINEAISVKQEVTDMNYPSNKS
protocol_details: Inhibition of recombinant GST-tagged SIRT1 after 1 hr by Fluor de Lys-based fluorescence assay
pIC50: −log10 of the molar value. Where a SMILES comes first, the peptide text is derived from it. [ ]: non-standard residue; d: D form. Lys(Thioacetyl) = CC(=S)NCCCC[C@H](N)C(=O)O
Property: pIC50; scope: individual compounds

[
  {
    "compound": "CC(=S)NCCCC[C@H](NC(=O)OCc1ccccc1)C(=O)NCC(=O)c1ccccc1",
    "pIC50": 5.80
  },
  {
    "compound": "CC(=S)NCCCC[C@H](NC(=O)CCc1ccccc1)C(=O)N[C@@H](C)C(=O)O",
    "pIC50": 6.00
  },
  {
    "compound": "COC(=O)[C@H](C)NC(=O)[C@H](CCCCNC(C)=S)NC(C)=O",
    "pIC50": 4.29
  },
  {
    "compound": "CC(=S)NCCCC[C@H](NC(=O)OCc1ccccc1)C(=O)Nc1ccccc1",
    "pIC50": 5.00
  },
  {
    "compound": "CC(=S)NCCCC[C@H](NC(=O)OCc1ccccc1)C(=O)NC1CCCCC1",
    "pIC50": 4.64
  },
  {
    "compound": "CNC(=O)[C@H](C)NC(=O)[C@H](CCCCNC(C)=S)NC(=O)[C@H](C)NC(C)=O",
    "pIC50": 6.40
  },
  {
    "compound": "CC(=S)NCCCC[C@H](NC(=O)[C@H](C)NC(=O)OC(C)(C)C)C(=O)N[C@@H](C)C(=O)O",
    "pIC50": 6.11
  },
  {
    "compound": "CSCC[C@H](NC(=O)[C@H](CC(C)C)NC(=O)[C@H](CCCCNC(C)=S)NC(=O)[C@H](CCCCN)NC(=O)[C@@H](N)Cc1cnc[nH]1)C(=O)O (H-HK[Lys(Thioacetyl)]LM-OH)",
    "pIC50": 6.51
  },
  {
    "compound": "CC(=S)NCCCC[C@H](NC(=O)OCc1ccccc1)C(=O)Nc1ccccc1O",
    "pIC50": 5.29
  },
  {
    "compound": "CC(=S)NCCCC[C@H](NC(=O)OCc1ccccc1)C(=O)N[C@@H](C)C(=O)O",
    "pIC50": 5.89
  },
  {
    "compound": "CC(=S)NCCCC[C@H](NC(=O)CCc1ccccc1F)C(=O)N[C@@H](C)C(=O)O",
    "pIC50": 5.89
  },
  {
    "compound": "COC(=O)[C@H](C)NC(=O)[C@H](CCCCNC(C)=S)NC(=O)[C@H](C)NC(C)=O",
    "pIC50": 6.00
  },
  {
    "compound": "CC(=O)N1CCC[C@H]1C(=O)N[C@@H](CCCCNC(C)=S)C(=O)N[C@@H](C)C(=O)O",
    "pIC50": 6.43
  },
  {
    "compound": "CC(=S)NCCCC[C@H](NC(=O)CCc1ccccc1O)C(=O)N[C@@H](C)C(=O)O",
    "pIC50": 6.00
  },
  {
    "compound": "CC(=S)NCCCC[C@H](NC(=O)[C@H](C)N)C(=O)N[C@@H](C)C(=O)O",
    "pIC50": 6.18
  },
  {
    "compound": "CC(=S)NCCCC[C@H](NC(=O)[C@@H]1CCCN(C(=O)OC(C)(C)C)C1)C(=O)N[C@@H](C)C(=O)O",
    "pIC50": 6.01
  },
  {
    "compound": "CC(=S)NCCCC[C@H](NC(=O)OCc1ccccc1)C(=O)Nc1ccccc1F",
    "pIC50": 5.13
  },
  {
    "compound": "CC(=S)NCCCC[C@H](NC(=O)[C@H](N)Cc1ccccc1)C(=O)N[C@@H](C)C(=O)O",
    "pIC50": 4.74
  }
]

* * *

tested_target: NAD-dependent protein deacetylase sirtuin-2 (Homo sapiens)
protocol_details: Inhibition of recombinant GST-tagged SIRT2 after 1 hr by Fluor de Lys-based fluorescence assay
pIC50: −log10 of the molar value.
pIC50 below 5 gives Condition not met; pIC50 at or above it gives Condition met.

[
  {
    "smiles_representation": "CC(=S)NCCCC[C@H](NC(=O)CCc1ccccc1O)C(=O)N[C@@H](C)C(=O)O",
    "classification": "Condition not met"
  },
  {
    "smiles_representation": "CC(=S)NCCCC[C@H](NC(=O)OCc1ccccc1)C(=O)Nc1ccccc1F",
    "classification": "Condition not met"
  },
  {
    "smiles_representation": "CC(=S)NCCCC[C@H](NC(=O)CCc1ccccc1F)C(=O)N[C@@H](C)C(=O)O",
    "classification": "Condition not met"
  },
  {
    "smiles_representation": "CNC(=O)[C@H](C)NC(=O)[C@H](CCCCNC(C)=S)NC(=O)[C@H](C)NC(C)=O",
    "classification": "Condition met"
  },
  {
    "smiles_representation": "COC(=O)[C@H](C)NC(=O)[C@H](CCCCNC(C)=S)NC(C)=O",
    "classification": "Condition not met"
  },
  {
    "smiles_representation": "CC(=S)NCCCC[C@H](NC(=O)CCc1ccccc1)C(=O)N[C@@H](C)C(=O)O",
    "classification": "Condition not met"
  }
]

* * *

tested_target: Histone deacetylase (Homo sapiens) (UniProt Q13547+O15379+Q9UBN7+Q92769+Q9UQL6+Q8WUI4+Q9BY41+Q96DB2+P56524+Q9UKV0+Q969S8)
protocol_details: Inhibition of HDAC in human HeLa nuclear extract at 200 uM after 1 hr by Fluor de Lys-based fluorescence assay
Format: protein assay
Is inhibition at least 8%? Then YES. If not, NO.

[
  {
    "smiles_representation": "CC(=S)NCCCC[C@H](NC(=O)OCc1ccccc1)C(=O)NC1CCCCC1",
    "classification": "YES"
  },
  {
    "smiles_representation": "CC(=S)NCCCC[C@H](NC(=O)OCc1ccccc1)C(=O)N[C@@H](C)C(=O)O",
    "classification": "NO"
  },
  {
    "smiles_representation": "CC(=S)NCCCC[C@H](NC(=O)OCc1ccccc1)C(=O)Nc1ccccc1O",
    "classification": "NO"
  },
  {
    "smiles_representation": "CC(=S)NCCCC[C@H](NC(=O)[C@H](N)Cc1ccccc1)C(=O)N[C@@H](C)C(=O)O",
    "classification": "NO"
  },
  {
    "smiles_representation": "CC(=S)NCCCC[C@H](NC(=O)CCc1ccccc1)C(=O)N[C@@H](C)C(=O)O",
    "classification": "YES"
  },
  {
    "smiles_representation": "CC(=S)NCCCC[C@H](NC(=O)[C@H](C)NC(=O)OC(C)(C)C)C(=O)N[C@@H](C)C(=O)O",
    "classification": "YES"
  },
  {
    "smiles_representation": "CC(=S)NCCCC[C@H](NC(=O)OCc1ccccc1)C(=O)Nc1ccccc1F",
    "classification": "NO"
  }
]

* * *

tested_target: NAD-dependent protein deacetylase sirtuin-2 (Homo sapiens, UniProt Q8IXJ6)
Sequence (Q8IXJ6 whole entry): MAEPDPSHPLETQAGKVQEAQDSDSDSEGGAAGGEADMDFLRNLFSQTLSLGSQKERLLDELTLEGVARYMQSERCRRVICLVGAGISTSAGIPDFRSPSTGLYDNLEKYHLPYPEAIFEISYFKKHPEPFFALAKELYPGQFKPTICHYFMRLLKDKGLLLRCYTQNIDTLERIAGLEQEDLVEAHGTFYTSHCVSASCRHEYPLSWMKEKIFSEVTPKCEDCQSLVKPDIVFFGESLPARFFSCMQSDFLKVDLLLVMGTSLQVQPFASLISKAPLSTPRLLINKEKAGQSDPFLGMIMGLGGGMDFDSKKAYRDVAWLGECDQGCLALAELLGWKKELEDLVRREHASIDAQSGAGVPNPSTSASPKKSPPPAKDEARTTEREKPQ
protocol_details: Inhibition of recombinant GST-tagged SIRT2 after 1 hr by Fluor de Lys-based fluorescence assay
Where a SMILES comes first, the peptide text is derived from it. [ ]: non-standard residue; d: D form. Lys(Thioacetyl) = CC(=S)NCCCC[C@H](N)C(=O)O
# IC50 per entry

[
  {
    "compound": "CC(=O)N1CCC[C@H]1C(=O)N[C@@H](CCCCNC(C)=S)C(=O)N[C@@H](C)C(=O)O",
    "tested_target": "NAD-dependent protein deacetylase sirtuin-2 (Homo sapiens, UniProt Q8IXJ6)",
    "IC50 (µM)": 31
  },
  {
    "compound": "CC(=S)NCCCC[C@H](NC(=O)OCc1ccccc1)C(=O)N[C@@H](C)C(=O)O",
    "tested_target": "NAD-dependent protein deacetylase sirtuin-2 (Homo sapiens, UniProt Q8IXJ6)",
    "IC50 (µM)": 17
  },
  {
    "compound": "CC(=S)NCCCC[C@H](NC(=O)OCc1ccccc1)C(=O)Nc1ccccc1",
    "tested_target": "NAD-dependent protein deacetylase sirtuin-2 (Homo sapiens, UniProt Q8IXJ6)",
    "IC50 (µM)": 15
  },
  {
    "compound": "CSCC[C@H](NC(=O)[C@H](CC(C)C)NC(=O)[C@H](CCCCNC(C)=S)NC(=O)[C@H](CCCCN)NC(=O)[C@@H](N)Cc1cnc[nH]1)C(=O)O (H-HK[Lys(Thioacetyl)]LM-OH)",
    "tested_target": "NAD-dependent protein deacetylase sirtuin-2 (Homo sapiens, UniProt Q8IXJ6)",
    "IC50 (µM)": 6.3
  },
  {
    "compound": "CC(=S)NCCCC[C@H](NC(=O)[C@H](C)N)C(=O)N[C@@H](C)C(=O)O",
    "tested_target": "NAD-dependent protein deacetylase sirtuin-2 (Homo sapiens, UniProt Q8IXJ6)",
    "IC50 (µM)": 36
  },
  {
    "compound": "COC(=O)[C@H](C)NC(=O)[C@H](CCCCNC(C)=S)NC(=O)[C@H](C)NC(C)=O",
    "tested_target": "NAD-dependent protein deacetylase sirtuin-2 (Homo sapiens, UniProt Q8IXJ6)",
    "IC50 (µM)": 13
  },
  {
    "compound": "CC(=S)NCCCC[C@H](NC(=O)[C@H](C)NC(=O)OC(C)(C)C)C(=O)N[C@@H](C)C(=O)O",
    "tested_target": "NAD-dependent protein deacetylase sirtuin-2 (Homo sapiens, UniProt Q8IXJ6)",
    "IC50 (µM)": 6.5
  },
  {
    "compound": "CC(=S)NCCCC[C@H](NC(=O)OCc1ccccc1)C(=O)NCC(=O)c1ccccc1",
    "tested_target": "NAD-dependent protein deacetylase sirtuin-2 (Homo sapiens, UniProt Q8IXJ6)",
    "IC50 (µM)": 4.3
  }
]
